Record form. Attribute: IC50. Fill in for each entry.
target desc: memapsin 2 (Cricetulus griseus)
Construct: endogenous in cells
Sequence (G3IAK4 22-501): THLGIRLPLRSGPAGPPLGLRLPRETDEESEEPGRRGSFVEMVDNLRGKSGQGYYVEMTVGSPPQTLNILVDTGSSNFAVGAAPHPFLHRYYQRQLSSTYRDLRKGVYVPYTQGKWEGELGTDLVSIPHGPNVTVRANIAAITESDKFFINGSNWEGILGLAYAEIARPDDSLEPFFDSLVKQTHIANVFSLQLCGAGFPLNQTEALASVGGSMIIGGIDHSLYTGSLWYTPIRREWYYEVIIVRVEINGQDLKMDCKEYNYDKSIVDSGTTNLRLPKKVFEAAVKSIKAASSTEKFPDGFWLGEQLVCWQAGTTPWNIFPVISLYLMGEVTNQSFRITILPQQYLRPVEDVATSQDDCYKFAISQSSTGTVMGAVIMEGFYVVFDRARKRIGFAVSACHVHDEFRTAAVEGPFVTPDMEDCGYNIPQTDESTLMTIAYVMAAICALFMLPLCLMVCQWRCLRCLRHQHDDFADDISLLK
assay name: Cellular Aβ IC50 determination (Aβ40 sandwich ELISA)
reported conditions: CHO cells over-expressing human APP695 with London and Swedish mutations, 24 h, read-out: M2 IC50

Value of measured IC50 for the entry Cc1csc([C@H]2CCCN2C(=O)c2cccc(C(=O)N[C@@H](Cc3ccccc3)[C@H](O)[C@H]3CC[C@@H](C)N3)c2)n1 : > 1 µM

So, Cc1csc([C@H]2CCCN2C(=O)c2cc(C(=O)N[C@@H](Cc3ccccc3)[C@H](O)[C@H]3CCCN3)cc(C3CC3)c2)n1 ? Its IC50 was > 1 µM

Measured IC50, Cc1csc(CN(C)C(=O)c2cc(C(=O)N[C@@H](Cc3ccccc3)[C@H](O)[C@H]3CCCN3)cc(-n3cccc3)c2)n1 : 0.5 to 1 µM

Per the record, Cc1csc([C@H]2CCCN2C(=O)c2cc(C(=O)N[C@@H](Cc3ccccc3)[C@H](O)[C@H]3CCCN3)cc(N(C)C)c2)n1 has IC50 of > 1 µM

The recorded IC50 for entry Cc1csc([C@H]2CCCN2C(=O)c2cccc(C(=O)N[C@@H](Cc3ccccc3)[C@H](O)[C@H]3CCCN3)c2)n1 equals 0.5 to 1 µM

Record Cc1csc([C@H]2CCCN2C(=O)c2cc(C(=O)N[C@@H](Cc3ccccc3)[C@H](O)[C@H]3C[C@@H](OCc4ccccc4)CN3)cc(-c3ncco3)c2)n1 . Reported IC50: < 0.5 µM

Short answer for Cc1cc(C(=O)N[C@@H](Cc2ccccc2)[C@H](O)CNCc2cncc(C(C)(C)C)c2)cc(C(=O)N2CCC[C@@H]2c2nc(C)co2)c1 [2-11, reference compound] : IC50 was < 0.5 µM

What the record says about COc1cc(C(=O)N[C@@H](Cc2ccccc2)[C@H](O)[C@H]2CCCN2)cc(C(=O)N2CCC[C@@H]2c2nc(C)cs2)c1 : IC50 is > 1 µM

The measured IC50 associated with Cc1csc([C@H]2CCCN2C(=O)c2cc(C(=O)N[C@@H](Cc3ccccc3)[C@H](O)[C@H]3CCCN3)cc(N3CCOCC3)c2)n1 reads > 1 µM

Value of measured IC50 for the entry Cc1coc([C@H]2CCCN2C(=O)c2cccc(C(=O)N[C@@H](Cc3ccccc3)[C@H](O)[C@H]3CCCN3)c2)n1 : > 1 µM

So for C[C@@H](NC(=O)c1cc(C(=O)N[C@@H](Cc2ccccc2)[C@H](O)[C@H]2CCCN2C(=O)OC(C)(C)C)cc(N(C)S(C)(=O)=O)c1)c1ccccc1 , the logged IC50 turned out to be > 1 µM

For Cc1cc(C(=O)N[C@@H](Cc2ccccc2)[C@H](O)[C@H]2CCCN2)cc(C(=O)N2CCC[C@@H]2c2nc(C)co2)c1 the molecule record lists IC50 as > 1 µM

The molecule Cc1csc([C@H]2CCCN2C(=O)c2cc(F)cc(C(=O)N[C@@H](Cc3ccccc3)[C@H](O)[C@H]3CCCN3)c2)n1 showed IC50 equal to > 1 µM

Looking up Cc1csc([C@H]2CCCN2C(=O)c2cc(C(=O)N[C@@H](Cc3ccccc3)[C@H](O)[C@H]3CCCN3)cc(N(C)S(C)(=O)=O)c2)n1 , I found its IC50 recorded as < 0.5 µM
